B1: tRNA (parent)
chain: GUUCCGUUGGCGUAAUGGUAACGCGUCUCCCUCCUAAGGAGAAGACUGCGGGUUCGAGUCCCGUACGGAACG

variants of: B1; assay: yeast fitness relative to wild type (ratio to wild type); higher = fitter; tRNA-Arg(CCU), competitive growth, 37 C, YPD
Variants at the floor of the assay were thinned out.
endpoint label: yeast fitness

Previously resolved entries follow.
variant descriptor: C5A U28G C30G A40C A42U
yeast fitness: ≤ 0.5
--
variant descriptor: C22A G23A A37G U54G
yeast fitness: ≤ 0.5
--
variant descriptor: C27U G38A G51A
yeast fitness: ≤ 0.5

Exam item: Entry under review: C34G A36C A70C . Reported yeast fitness?
Marked response: ≤ 0.5

Exam item: Entry under review: C5U U47A G48C G51A . Reported yeast fitness?
Marked response: ≤ 0.5

Exam item: Entry under review: U28G G41C C55G A70U . Reported yeast fitness?
Marked response: ≤ 0.5

Exam item: Entry under review: G23C A36C A45C G58A G68C . Reported yeast fitness?
Marked response: ≤ 0.5

Exam item: Entry under review: U2A C11G U35G U47A G48A A65U . Reported yeast fitness?
Marked response: ≤ 0.5

Just for reference, the RNAGym collection of RNA variant scans (doi:10.1126/science.aae0568) is where these values come from.
